B1: PLAGL1 (parent)
chain: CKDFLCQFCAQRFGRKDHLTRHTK

variants of: B1; experiment: protein stability index of a GFP-peptide fusion (GPS, HEK-293T) (PSI 1-6); higher = more stable; conditions: c terminus: a fixed tail appended;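 note: lentivirally expressed fusions sorted by FACS into six bins by GFP to DsRed ratio, PSI derived from sequencing read proportions per bin multiplied by bin number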
READOUT: protein stability index
Reply with the value as a number alone.

Use the examples below as a reference point.
SEQ_TEXT	protein stability index
CKDFLCQMCAQRFGRKDHLTRHTK	2.19
CKDFLCQFCAQVFGRKDHLTRHTK	2.33
IKDFLCQFCAQRFGRKDHLTRHTK	2.46
CKDFLCQFCAQRFGRKDHLTRHNK	1.81
CKDFLCPFCAQRFGRKDHLTRHTK	2.23

## Task State, in one line, measured protein stability index of CKDFLCQFCAQRFGRKMHLTRHTK
## Result 1.3

## Task State, in one line, measured protein stability index of CKDCLCQFCAQRFGRKDHLTRHTK
## Result 1.97

## Task State, in one line, measured protein stability index of CKDFHCQFCAQRFGRKDHLTRHTK
## Result 1.89

## Task State, in one line, measured protein stability index of CKDFLCQFCAQRFGRKDHLTRHTY
## Result 1.56

## Task State, in one line, measured protein stability index of CKDFLCQFCAQRFGRKDHLTEHTK
## Result 2.48
